Assayed target: human VEGFR2 kinase (Homo sapiens)
Construct: GST-fusion protein encoding the catalytic carboxyl-terminus of human VEGFR kinase 1, 2, or 3
Sequence (P35968 834-1162 limits assumed): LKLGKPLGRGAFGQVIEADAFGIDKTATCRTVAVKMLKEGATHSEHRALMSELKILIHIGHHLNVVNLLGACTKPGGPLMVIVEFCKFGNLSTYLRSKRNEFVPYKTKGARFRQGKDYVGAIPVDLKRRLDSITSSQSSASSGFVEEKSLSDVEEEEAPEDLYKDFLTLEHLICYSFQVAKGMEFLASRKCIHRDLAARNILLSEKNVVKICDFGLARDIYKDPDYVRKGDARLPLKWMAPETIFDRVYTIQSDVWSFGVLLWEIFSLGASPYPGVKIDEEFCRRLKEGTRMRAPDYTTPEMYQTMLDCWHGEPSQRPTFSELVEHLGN
Assay text: VEGFR2 kinase assay (HTRF)
Condition parameters: Table 1
Parameter: IC50 (nM)
State just the number; it will be interpreted in nM.

• Cc1n[nH]c2cc(N(C)c3ccnc(Nc4cc(S(N)(=O)=O)ccc4Cl)n3)ccc12 [GW695612] = 1.1

-- ask Fill in: IC50 of CCS(=O)(=O)c1ccc(OC)c(Nc2nccc(N(C)c3ccc4c(C)n[nH]c4c3)n2)c1 [GW654652] is ___
-- reply 2.3

-- ask # input compound: COc1cc(Nc2nccc(Nc3ccc4c(C)n[nH]c4c3)n2)cc(OC)c1OC [GW612286] ; wanted: its IC50
-- reply 8

Attribution: paper PMC2409895
